Origin of values: patent US20070117743A1

System: HeLa
assay remarks: SRB colorimetric assay of cell growth and viability, HeLa
Type: cell-based, human
setup conditions: 48 hours exposure; read-out: LC50 HELA
result type: CC50 (µM)
Provide the reading as a plain figure in µM.

Reported CC50, compound C/C=C1\NC(=O)[C@H](Cc2ccccc2)NC(=O)[C@@H](C(C)C)NC(=O)[C@@H]([C@@H](C)CC)NC(=O)[C@H](NC(=O)[C@H](NC(=O)[C@H](CCCN)NC(=O)[C@H]2CCCN2C(=O)[C@H](NC(=O)[C@@H](NC(=O)[C@@H](NC(=O)[C@H](NC(=O)C(F)(F)C(F)(F)C(F)(F)C(F)(F)C(F)(F)C(F)(F)F)C(C)C)[C@@H](C)O)C(C)C)C(C)C)[C@@H](C)CC)[C@@H](C)OC(=O)[C@H](C(C)C)NC1=O [Compound 26, [Pfh^14]-KF] : ____
3.51

====

Test system: SK-BR-3
assay remarks: SRB colorimetric assay of cell growth and viability, SK-BR-3
Format: cell-based, human
setup conditions: SK-BR-3; 48 hours exposure
Where a SMILES comes first, the peptide text is derived from it. Bridges are numbered along the chain shown (N, C = ends). [ ]: non-standard residue; d: D form. The star is where a group is joined. 2Nal = N[C@@H](Cc1ccc2ccccc2c1)C(=O)O; d(aIle) = CC[C@H](C)[C@@H](N)C(=O)O; d(aThr) = C[C@@H](O)[C@@H](N)C(=O)O; Hexanoyl(5-Me) = CC(C)CCCC(=O)*; Orn = NCCC[C@H](N)C(=O)O; Dhb = C/C=C(\N)C(=O)O
result type: TGI SK-BR-3

Worked cases, TGI SK-BR-3 given:
[
  {
    "compound": "C/C=C1\\NC(=O)[C@H](Cc2ccccc2Cl)NC(=O)[C@@H](C(C)C)NC(=O)[C@@H]([C@@H](C)CC)NC(=O)[C@H](NC(=O)[C@H](NC(=O)[C@H](CCCN)NC(=O)[C@H]2CCCN2C(=O)[C@H](NC(=O)[C@@H](NC(=O)[C@@H](NC(=O)[C@H](NC(=O)CCCC(C)C)C(C)C)[C@@H](C)O)C(C)C)C(C)C)[C@@H](C)CC)[C@@H](C)OC(=O)[C@H](C(C)C)NC1=O [Compound 81, [Phe(2-Cl)^3]-KF]",
    "TGI SK-BR-3": "1.18E−07 Molar"
  },
  {
    "compound": "C/C=C1\\NC(=O)[C@H](Cc2ccccc2)NC(=O)[C@@H](C(C)C)NC(=O)[C@@H]([C@@H](C)CC)NC(=O)[C@H](NC(=O)[C@H](NC(=O)[C@H](CCCN)NC(=O)[C@H]2CCCN2C(=O)[C@H](NC(=O)[C@@H](NC(=O)[C@@H]2CCCN2C(=O)[C@H](NC(=O)CCCC(C)C)C(C)C)C(C)C)C(C)C)[C@@H](C)CC)[C@@H](C)OC(=O)[C@H](C(C)C)NC1=O [Compound 117, [Pro^12]-KF] ({Hexanoyl(5-Me)}-[dV]PV[dV][dP][Orn][d(aIle)][d(aThr)][d(aIle)][dV]F[Dhb]V; ester 8-C)",
    "TGI SK-BR-3": "2.96E−06 Molar"
  }
]

// moving on: another record for TGI SK-BR-3
Entry C/C=C1\NC(=O)[C@H](Cc2ccc3ccccc3c2)NC(=O)[C@@H](C(C)C)NC(=O)[C@@H]([C@@H](C)CC)NC(=O)[C@H](NC(=O)[C@H](NC(=O)[C@H](CCCN)NC(=O)[C@H]2CCCN2C(=O)[C@H](NC(=O)[C@@H](NC(=O)[C@@H](NC(=O)[C@H](NC(=O)CCCC(C)C)C(C)C)[C@@H](C)O)C(C)C)C(C)C)[C@@H](C)CC)[C@@H](C)OC(=O)[C@H](C(C)C)NC1=O [Compound 85, [Nal^3]-KF] ({Hexanoyl(5-Me)}-[dV]TV[dV][dP][Orn][d(aIle)][d(aThr)][d(aIle)][dV][2Nal][Dhb]V; ester 8-C) : reported TGI SK-BR-3 = ?
5.80E−08 Molar

====

Test system: IGROV-ET
assay remarks: SRB colorimetric assay of cell growth and viability, IGROV-ET
Assay type: cell-based, human
setup conditions: 48 hours exposure
Where a SMILES comes first, the peptide text is derived from it. Bridges are numbered along the chain shown (N, C = ends). [ ]: non-standard residue; d: D form. The star is where a group is joined. d(aIle) = CC[C@H](C)[C@@H](N)C(=O)O; d(aThr) = C[C@@H](O)[C@@H](N)C(=O)O; Hexanoyl(5-Me) = CC(C)CCCC(=O)*; Orn = NCCC[C@H](N)C(=O)O; Dhb = C/C=C(\N)C(=O)O
GI50 by entry:
Response body: numeric value in nM, unit text excluded.

Dear colleague, I am looking for the recorded GI50 of the following compound: C/C=C1\NC(=O)[C@H](Cc2ccccc2)NC(=O)[C@@H](C(C)C)NC(=O)[C@@H]([C@@H](C)CC)NC(=O)[C@H](NC(=O)[C@H](NC(=O)[C@H](CCCN)NC(=O)[C@H]2CCCN2C(=O)[C@H](NC(=O)[C@@H](NC(=O)[C@@H](NC(=O)[C@H](NC(=O)CCCC(C)C)C(C)C)[C@@H](C)O)C(C)C)C(C)C)[C@@H](C)CC)COC(=O)[C@H](C(C)C)NC1=O [Compound 3, [D-Ser^6]-KF] ({Hexanoyl(5-Me)}-[dV]TV[dV][dP][Orn][d(aIle)][dS][d(aIle)][dV]F[Dhb]V; ester 8-C)
264

May I ask what GI50 has been recorded for C/C=C1\NC(=O)[C@H](Cc2ccccc2)NC(=O)[C@@H](C(C)C)NC(=O)[C@@H]([C@@H](C)CC)NC(=O)[C@H](NC(=O)[C@H](NC(=O)[C@H](CCCN)NC(=O)[C@H]2CCCN2C(=O)[C@H](NC(=O)[C@@H](NC(=O)[C@@H](NC(=O)[C@H](NC(=O)CCCC(C)C)C(C)C)C(C)C)C(C)C)C(C)C)[C@@H](C)CC)[C@@H](C)OC(=O)[C@H](C(C)C)NC1=O [Compound 6, [Val^12]-KF] ({Hexanoyl(5-Me)}-[dV]VV[dV][dP][Orn][d(aIle)][d(aThr)][d(aIle)][dV]F[Dhb]V; ester 8-C) ?
154

====

Tested on: IGROV-1
assay remarks: SRB colorimetric assay of cell growth and viability, IGROV-1
Type: cell-based, human
setup conditions: 48 hours exposure
Where a SMILES comes first, the peptide text is derived from it. Bridges are numbered along the chain shown (N, C = ends). [ ]: non-standard residue; d: D form. The star is where a group is joined. d(aIle) = CC[C@H](C)[C@@H](N)C(=O)O; d(aThr) = C[C@@H](O)[C@@H](N)C(=O)O; Hexanoyl(5-Me) = CC(C)CCCC(=O)*; Orn = NCCC[C@H](N)C(=O)O; Dhb = C/C=C(\N)C(=O)O
result type: LC50 (concentration causing 50% net cell killing) (µM)
Unit µM implied. Number only.

[
  {
    "compound": "C/C=C1\\NC(=O)[C@H](Cc2ccccc2)NC(=O)[C@@H](C(C)C)NC(=O)[C@@H]([C@@H](C)CC)NC(=O)[C@H](NC(=O)[C@H](NC(=O)[C@H](CCCN)NC(=O)[C@H]2CCCN2C(=O)[C@H](NC(=O)[C@H](CCC(=O)O)NC(=O)[C@@H](NC(=O)[C@H](NC(=O)CCCC(C)C)C(C)C)[C@@H](C)O)C(C)C)[C@@H](C)CC)[C@@H](C)OC(=O)[C@H](C(C)C)NC1=O [Compound 51, [Glu^11]-KF] ({Hexanoyl(5-Me)}-[dV]TE[dV][dP][Orn][d(aIle)][d(aThr)][d(aIle)][dV]F[Dhb]V; ester 8-C)",
    "recorded measurement": 6.63
  }
]

We next turn to a different compound, shown below.
Entry under review: C/C=C1\NC(=O)[C@H](Cc2ccccc2)NC(=O)[C@@H](C(C)C)NC(=O)[C@@H]([C@@H](C)CC)NC(=O)[C@H](NC(=O)[C@H](NC(=O)[C@H](CCCN)NC(=O)[C@H]2CCCN2C(=O)[C@H](NC(=O)CNC(=O)[C@@H](NC(=O)[C@H](NC(=O)CCCC(C)C)C(C)C)[C@@H](C)O)C(C)C)[C@@H](C)CC)[C@@H](C)OC(=O)[C@H](C(C)C)NC1=O [Compound 42, [Gly^11]-KF] ({Hexanoyl(5-Me)}-[dV]TG[dV][dP][Orn][d(aIle)][d(aThr)][d(aIle)][dV]F[Dhb]V; ester 8-C) . Reported LC50 (concentration causing 50% net cell killing)?
6.96

====

Overview of reported CC50 across a group of compounds:
System: HT-29
assay remarks: SRB colorimetric assay of cell growth and viability, HT-29
Assay type: cell-based, human
setup conditions: HT-29; 48 hours exposure; read-out: LC50 HT-29
Protocol: The finality of this assay is to interrupt the growth of a “in vitro” tumor cell culture by means a continued exhibition of the cells to the sample to be testing. […] Cells are seeded in 96 well microtiter plates, at 5×10^3 cells per well in aliquots of 195 μL medium, and they are allowed to attach to the plate surface by growing in drug free medium for 18 hours. […] Optical densities are read on a automated spectrophotometric plate reader at a single wavelength of 490 nm. […]
Where a SMILES comes first, the peptide text is derived from it. Bridges are numbered along the chain shown (N, C = ends). [ ]: non-standard residue; d: D form. The star is where a group is joined. Bip = N[C@@H](Cc1ccc(-c2ccccc2)cc1)C(=O)O; d(aIle) = CC[C@H](C)[C@@H](N)C(=O)O; d(aThr) = C[C@@H](O)[C@@H](N)C(=O)O; Hexanoyl(5-Me) = CC(C)CCCC(=O)*; Orn = NCCC[C@H](N)C(=O)O; Dhb = C/C=C(\N)C(=O)O
Enter your answer as a number in µM; do not include the unit.

[
  {
    "compound": "C/C=C1\\NC(=O)[C@H](Cc2ccc(-c3ccccc3)cc2)NC(=O)[C@@H](C(C)C)NC(=O)[C@@H]([C@@H](C)CC)NC(=O)[C@H](NC(=O)[C@H](NC(=O)[C@H](CCCN)NC(=O)[C@H]2CCCN2C(=O)[C@H](NC(=O)[C@@H](NC(=O)[C@@H](NC(=O)[C@H](NC(=O)CCCC(C)C)C(C)C)[C@@H](C)O)C(C)C)C(C)C)[C@@H](C)CC)[C@@H](C)OC(=O)[C@H](C(C)C)NC1=O [Compound 86, [Bip^3]-KF] ({Hexanoyl(5-Me)}-[dV]TV[dV][dP][Orn][d(aIle)][d(aThr)][d(aIle)][dV][Bip][Dhb]V; ester 8-C)",
    "readout units": "µM",
    "CC50": 5.07
  }
]

Kindly review the next compound as well.
So what CC50 did C/C=C1\NC(=O)[C@H](Cc2ccccc2)NC(=O)[C@@H](C(C)C)NC(=O)[C@@H]([C@@H](C)CC)NC(=O)[C@H](NC(=O)[C@H](NC(=O)[C@H](CCCN)NC(=O)[C@H]2CCCCN2C(=O)[C@H](NC(=O)[C@@H](NC(=O)[C@@H](NC(=O)[C@H](NC(=O)CC[C@@H](C)CC)C(C)C)[C@@H](C)O)C(C)C)C(C)C)[C@@H](C)CC)[C@@H](C)OC(=O)[C@H](C(C)C)NC1=O [Compound 60, [D-Pip^9, (4S)-MeHex^14]-KF] get with HT-29?
4.47
